# Assay Text: Qualitative solubility of test peptides in 0.5 N saline
# Format: physicochemical
# Details: pH 6.5, 20° C. (table title)
Where a SMILES comes first, the peptide text is derived from it. The star is where a group is joined. Myristoyl = CCCCCCCCCCCCCC(=O)*
We begin with a simple list: items and their reported solubility.

1) CCCCCCCCCCCCCC(=O)NCC(=O)N[C@@H](C)C(=O)N[C@@H](CCC(N)=O)C(=O)N[C@@H](Cc1ccccc1)C(=O)N[C@@H](CO)C(=O)N[C@@H](CCCCN)C(=O)N[C@H](C(=O)N[C@@H](C)C(=O)N[C@@H](C)C(=O)N[C@@H](CCCCN)C(=O)NCC(=O)N[C@@H](CCC(=O)O)C(=O)O)[C@@H](C)O [myr-peptide 79] (Myristoyl-GAQFSKTAAKGE-OH) = > 2000 µg/mL
2) CCCCCCCCCCCCCC(=O)NCC(=O)N[C@@H](C)C(=O)N[C@@H](CCC(N)=O)C(=O)N[C@@H](Cc1ccccc1)C(=O)N[C@@H](CO)C(=O)N[C@@H](CCCCN)C(=O)N[C@H](C(=O)N[C@@H](C)C(=O)N[C@@H](C)C(=O)N[C@@H](CCCCN)C(=O)NCC(=O)N[C@@H](CCC(=O)O)C(=O)N[C@@H](C)C(=O)N[C@@H](C)C(=O)N[C@@H](C)C(=O)N[C@@H](CCC(=O)O)C(=O)O)[C@@H](C)O [myr-peptide 37] (Myristoyl-GAQFSKTAAKGEAAAE-OH) = > 2000 µg/mL
3) CCCCCCCCCCCCCC(=O)NCC(=O)N[C@@H](C)C(=O)N[C@@H](CCC(N)=O)C(=O)N[C@@H](Cc1ccccc1)C(=O)N[C@@H](CO)C(=O)N[C@@H](CCCCN)C(=O)N[C@H](C(=O)N[C@@H](CCCCN)C(=O)N[C@@H](C)C(=O)N[C@@H](CCCCN)C(=O)NCC(=O)N[C@@H](CCC(=O)O)C(=O)O)[C@@H](C)O [myr-peptide 234] (Myristoyl-GAQFSKTKAKGE-OH) = > 3000 µg/mL

// next item, solubility requested
Inquiry: Please give the measured solubility for this compound: CCCCCCCCCCCCCC(=O)NCC(=O)N[C@@H](C)C(=O)N[C@@H](CCC(N)=O)C(=O)N[C@@H](Cc1ccccc1)C(=O)N[C@@H](CO)C(=O)N[C@@H](CCCCN)C(=O)N[C@H](C(=O)N[C@@H](C)C(=O)N[C@@H](C)C(=O)N[C@@H](CCCCN)C(=O)NCC(=O)N[C@@H](CCC(=O)O)C(N)=O)[C@@H](C)O [myr-peptide 79-NH2] (Myristoyl-GAQFSKTAAKGE-NH2)
Reply text: < 1000 µg/mL
